Ref: the Human Domainome abundance scans (Beltran et al. 2025)

B1: Protein piccolo, residues 1058 to 1114; numbered along this chain, Q9Y6V0 (parent)
chain: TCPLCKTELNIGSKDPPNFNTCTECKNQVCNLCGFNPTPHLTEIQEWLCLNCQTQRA

Variants of: B1
Experiment: abundance fitness (aPCA) (normalised: wild type 0, dead -1); higher = more abundant; growth selection in yeast, the domain comes from the species named
Details: Homo sapiens
Output 1 for abundance fitness not less than -0.2; output -1 otherwise.

VARIANT CODE: V29L
ASSIGNED CLASS: -1
//
VARIANT CODE: E8Y
ASSIGNED CLASS: -1
//
VARIANT CODE: C52W
ASSIGNED CLASS: -1
//
VARIANT CODE: G34N
ASSIGNED CLASS: -1

Quick check, abundance fitness >= -0.2? N51A
1

Could you do the same for Q28P , please?
1

Then this variant: E8P
1

What do you get for L41S ?
1

Item: V29T
1

Can you handle C2G next?
-1

Also P37D , if possible.
1

Next record, please: K26W
1

Param item: V29F
-1

// same read-out, input: T42M
-1

Next variant: P16W
-1

Next variant up: E24T
1
